Readings of INHIBITION for the listed compounds
- Test system: Plasmodium berghei
- experiment notes: Screen against P. berghei liver stage (PbLuc), transformed with Luciferase, at 10uM
- Assay type: functional, HepG2
- condition description: tested at 10 uM
Screen size: about 69,000 compounds; about 8,600 (12%) showed an effect of 50% or more. Many of the other results were omitted from the sample, so strong results are more common in it than they were.
Write the answer as a number in %, unit excluded.

Here's what some known entries look like.
CS(=O)(=O)CCCSc1cccc(C#N)c1: -9.08
CCS(=O)(=O)N1CCN(CCn2cccn2)c2nc(C)ccc2C1: 26.3

Ask | Quick one: INHIBITION for O=C(NCC1CC1)[C@H]1C[C@H]2CN(C(=O)NCc3ccccc3)C[C@@H]1O2 ?
Reply | 13.6

Ask | Field request: INHIBITION | item: Cc1[nH]ncc1CCCNC(=O)Nc1ccccc1
Reply | 24.6

Ask | Please look up its INHIBITION: O=C(c1ccco1)N(CC(F)(F)F)C1CCOCC1
Reply | 61.3

Ask | Requested read-out: INHIBITION. Entry: O=C(c1ccc(F)cc1F)N(CC(F)(F)F)C1CCOCC1
Reply | 3.04

Ask | Recorded INHIBITION for Cc1ccc(CN2CC(O)CN(C(=O)OCC(C)C)CC2=O)cc1 (centres undefined) , please?
Reply | 18.4

Ask | Using the record for Cc1[nH]ncc1CCCNC(=O)N1CCOC(C)C1 (centres undefined) , report its INHIBITION.
Reply | -1.95

Ask | Look at this compound and give its reported INHIBITION. CC(C)N1Cc2c(C(=O)N3CCOCC3)nn(C)c2C1
Reply | 6.82

Ask | # INHIBITION lookup, item Cc1cc(Cn2c(=O)c3c(C(F)(F)F)cc(C)nc3n2C)on1
Reply | 4.81

Ask | Reported INHIBITION, compound CCc1ncc(C(=O)N(C)CCc2nc3cc(OC)ccc3[nH]2)cn1 : ____
Reply | 59.1

Ask | Fill blank: measured INHIBITION of the compound CCNc1ncc(C(=O)N(C)CCc2nc3cc(Cl)ccc3[nH]2)cn1 is ____.
Reply | 41.5

Ask | Can you share its INHIBITION? I mean this compound: Cc1[nH]ncc1CCCNC(=O)Nc1ccc(S(C)(=O)=O)nc1
Reply | 22.6

Ask | Reported INHIBITION, compound Cc1ccc(NS(=O)(=O)c2cccc(C#N)c2)c(CN(C)C)c1 : ____
Reply | -0.613

Ask | # query: INHIBITION of entry Cc1[nH]ncc1CCCNC(=O)Nc1ccc(F)cc1
Reply | 78.2

Ask | For Cc1ccc(NCc2ccc(C#N)cc2)c(CN(C)C)c1 , what is its reported INHIBITION?
Reply | 86.7

====

Below, each of the molecules is paired with its reported INHIBITION value.
- System: Plasmodium berghei
- experiment notes: Screen against P. berghei liver stage (PbLuc), transformed with Luciferase, at 10uM
- Format: functional, HepG2
- condition description: tested at 10 uM
The whole screen tested about 69,000 compounds, of which about 8,600 (12%) showed an effect of 50% or more. What follows is part of a selection rich in strong results, with near analogues and random picks from the rest.
Numbers only; they are read as %.

Here is how some molecules turned out for INHIBITION.
Cc1ccc(C)c(OCCC(=O)N2CCCN(CC(N)=O)CC2)c1: -79.3
CN(C)CCNC(=O)C1Cc2nc(-c3ccsc3)sc2N1CC1CC1 (stereo unspecified): -16.2
O=S(=O)(NC1CCC12CCN(CC1CC1)CC2)c1ccccc1 (stereo unspecified): 26
COc1cc(OC)c(C2Nc3cc(Cl)ccc3C3=NCCN32)cc1OC (stereo unspecified): 73.9
O=C(c1cnccn1)N1CCc2ncc(CN3CCOCC3)n2CC1: 48.6

In the following, a different molecule is considered.
Ask | What value of INHIBITION has been reported for the following molecule? N[C@@H]1CC[C@H](C(=O)NCc2ccc3nonc3c2)C1
Reply | 0

====

- Test system: Plasmodium berghei
- experiment notes: Screen against P. berghei liver stage (PbLuc), transformed with Luciferase, at 10uM
- Type: functional, HepG2
- condition description: tested at 10 uM
Hit rate of the full screen: of about 69,000 compounds, about 8,600 (12%) showed an effect of 50% or more. For the sample, strong results were picked, then their nearest neighbours and some compounds at random.
property measured: INHIBITION (%)
Value expressed in %; do not type the unit.

CC(C)c1cc(C(=O)N2CCN(Cc3ccsc3)CC2)n[nH]1: 36.3
COc1ccc(-c2noc(-c3ccc(N4CCC[C@H]4CO)nc3)n2)cc1: 84.8
COCc1noc(-c2ccc(N3CCCCC3CO)nc2)n1 (configuration not stated): 90.1
COc1ccc(-c2cnc(CN3CCCC3CO)o2)cc1 (configuration not stated): 15.1
COCc1noc(-c2ccc(N3CCCC3c3ccc(F)cc3)nc2)n1 (configuration not stated): 18.5
OC[C@@H]1CCCN1c1ccc(-c2nc(CCc3ccccc3)no2)cn1: 43.9
COc1ccnc(N2CCN(C(=O)c3cc(C4CC4)[nH]n3)CC2)n1: 25.1
O=C(c1cc(C2CC2)[nH]n1)N1CCN(Cc2ccsc2)CC1: 36.4

Ask | Param item = OCC1CCCCN1c1ccc(-c2nc(-c3ccccc3F)no2)cn1 (configuration not stated) ; retrieve measured INHIBITION.
Reply | 91.8

Ask | INHIBITION lookup needed for COCc1noc(-c2ccc(N3CCCC3c3nccs3)nc2)n1 (configuration not stated) , thanks.
Reply | 43

Ask | Could you share which INHIBITION value was measured for COCc1noc(-c2ccc(N3CCCCC3CCCO)nc2)n1 (configuration not stated) ?
Reply | 35.8

Ask | Quick one: INHIBITION of O=C(O)c1cccc(CN2CCCC(Cc3ccn[nH]3)C2)c1 (configuration not stated) ?
Reply | -0.05

====

- Test system: Plasmodium berghei
- experiment notes: Screen against P. berghei liver stage (PbLuc), transformed with Luciferase, at 10uM
- Type: functional, HepG2
- condition description: tested at 10 uM
The whole screen tested about 69,000 compounds, of which about 8,600 (12%) showed an effect of 50% or more. This excerpt belongs to a sample that is enriched for strong results.
// reported INHIBITION for each item listed
Please answer using the number first and the unit second.

Observe how each entry below is paired with its result.
Cc1cc(NC(=O)CN2CCc3cncnc3C2)on1: 43.3%
c1cnc(N2CCN(CCn3ccnc3-c3c[nH]cn3)CC2)nc1: 14.5%
NC(=O)COc1ccc(CN2CCC3(CC2)[C@H](O)C[C@@H]3O)cc1Cl: 28.7%
COc1cc(N2C[C@H](C(=O)NC3CC3)[C@@H]3CCO[C@@H]3C2)ncn1: 12.7%

Ask | Under Plasmodium berghei: INHIBITION value of Cc1cc(=O)n(CCNS(=O)(=O)c2ccccc2)cn1 ?
Reply | 31.3%

Ask | Form field: INHIBITION recorded for COC[C@]1(O)CCN(C(=O)c2cccc(CN(C)C)c2)CC1(C)C with Plasmodium berghei (enter value)
Reply | 54.7%

Ask | Reported INHIBITION for Plasmodium berghei, given Cc1cc(=O)n(CCNS(=O)(=O)c2cccc(C(F)(F)F)c2)cn1 ?
Reply | 68.5%

====

- Tested on: Plasmodium berghei
- experiment notes: Screen against P. berghei liver stage (PbLuc), transformed with Luciferase, at 10uM
- Format: functional, HepG2
- condition description: tested at 10 uM
Screen size: about 69,000 compounds; about 8,600 (12%) showed an effect of 50% or more. Only a selection was taken, and strong results are over-represented in it overall.
Consider the following compounds and their measured INHIBITION readings.
Please respond with the number in % and leave the unit unwritten.

CCOc1ccnc(N2CCN(C(=O)c3ccoc3C)CC2)n1: -13.5
Cc1cc(C(N)=O)nc(C2(C)CCCN2Cc2cnn(C)c2)n1 (stereo not drawn): 18.3
CCN1CCC2(CC1)OCCN2C(=O)c1ccc(OC)c(Cl)c1: 45

Ask | INHIBITION of CNC(=O)CN1CCN(C(=O)c2ccn(C)c(=O)c2)CC1 on Plasmodium berghei?
Reply | -7.31

====

- System: Plasmodium berghei
- experiment notes: Screen against P. berghei liver stage (PbLuc), transformed with Luciferase, at 10uM
- Type: functional, HepG2
- condition description: tested at 10 uM
About 8,600 (12%) of roughly 69,000 compounds showed an effect of 50% or more. The entries come from a sample that favours strong results as a whole.
Kindly apply the following: MET if INHIBITION is less than 20%, NOT MET in every other case.

Solved entries (count: 3):
Cc1nc(C)n(CCCNc2ncnc3onc(C)c23)n1: MET
COC(=O)CC1CCN(C(=O)c2ccc(C)cc2)CC1: NOT MET
Cc1ccc(-c2nc(CNC3CCc4ncnn4C3)cs2)cc1 (stereo unspecified): NOT MET

Ask | Confirm or reject: INHIBITION of COC(=O)c1ccc(N(C(=O)c2cscn2)C(C)C)c(C)c1 lies strictly below 20%
Reply | NOT MET

Ask | Bench note: check whether CC(c1ccc(Br)cc1)N1CCCN(C(N)=O)CC1 (stereo unspecified) shows INHIBITION below 20%
Reply | MET

Ask | Determine if CCn1ncc2[nH]c(-c3cc4c(cc3OC)OCO4)nc21 shows INHIBITION strictly lower than 20%.
Reply | MET
